- experimental-target: T1, corticotropin-releasing hormone (CRH) peptide (human and mouse, UniProt P01143 145-185 (rat entry), not fully specified)
- T1 peptide: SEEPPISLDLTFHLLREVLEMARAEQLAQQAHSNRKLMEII
- test-description: cell-based or functional assay
Here the recorded hCRHR1-Luc 0.5 nM CRH IC50 is given for each entry.
Your answer is read as nM, so omit the unit and give the number.

Answered examples (2):
PR302341-25 (antibody, human IgG1, kappa, V domains shown) VH: QVQLVQSGAEVKKPGASVKVSCKASGYTFTDYFMKWVRQAPGQRLEWMGVINPNNGDIFYNQKFKGRVTITVDKSASTAYMELSSLRSEDTAVYYCARGTDRALFAYWGQGTLVTVSS VL: DVVMTQTPLSLSVTPGQPASISCRSGQSIVHSDGNTYLEWYLQKPGQSPQLLIYKVSNRFSGVPDRFSGSGSGTDFTLKISRVEAEDLGVYYCFQGSHIPWTFGGGTKVEIKR : 0.711
PR302341-17 (antibody, human IgG1, kappa, V domains shown) VH: QVQLVQSGAEVKKPGASVKVSCKASGYTFTDYFMKWVRQAPGQGLEWMGVINPNNGDIFYNQKFKGRVTMTRDTSISTAYMELSRLRSDDTAVYYCARGTDRALFAYWGQGTLVTVSS VL: DVLMTQTPLSLPVSLGDQASISCRSGQSIVHSDGNTYLEWYLQRPGQSPRLLIYKVSNRFSGVPDRFSGSGSGTDFTLKISRVGAEDLGIYYCFQGSHIPWTFGGGTKLEVKR : 0.104

Tell me the measured hCRHR1-Luc 0.5 nM CRH IC50 of PR302341-27 (antibody, human IgG1, kappa, V domains shown) VH: QVQLVQSGAEVKKPGASVKVSCKASGYTFTDYFMKWVRQAPGQGLEWMGVINPNNGDIFYNQKFKGRVTMTVDKSISTAYMELSRLRSDDTAVYYCARGTDRALFAYWGQGTLVTVSS VL: DVVMTQTPLSLSVTPGQPASISCRSGQSIVHSDGNTYLEWYLQKPGQSPQLLIYKVSNRFSGVPDRFSGSGSGTDFTLKISRVEAEDLGVYYCFQGSHIPWTFGGGTKVEIKR , please.
0.518
